B1: VH:VL chains; a variant is named by its letters at X, in order (parent)
chain 1: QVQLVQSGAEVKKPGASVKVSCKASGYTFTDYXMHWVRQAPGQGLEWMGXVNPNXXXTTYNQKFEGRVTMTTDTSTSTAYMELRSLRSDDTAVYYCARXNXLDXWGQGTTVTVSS
chain 2: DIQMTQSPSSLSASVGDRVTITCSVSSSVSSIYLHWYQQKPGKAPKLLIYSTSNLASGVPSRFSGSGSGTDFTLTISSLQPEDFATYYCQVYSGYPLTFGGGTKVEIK

# Variants of: B1
# procedure-details: yeast display scFab, FACS + sequencing
# test-context: with MET
The list shows a part of the results. No count for the full screen is at hand.
metric-name: antigen binding call

{"columns": ["variant-id", "antigen binding call"],
 "data": [
  ["FRGKGAAA", "binds"],
  ["ARRGGSGF", "no binding"],
  ["VRAGDDVD", "no binding"],
  ["SEAGDAVV", "no binding"],
  ["YRERSSLD", "binds"]
]}

Tell me the measured antigen binding call of YRGAGSGY , please.
binds
